- Test system: TNF-α
- protocol_details: TNF-α release from PHA and LPS stimulated whole blood (DELFIA)
- Format: cell-based
- reported_conditions: Homo sapiens, Donor 1, read-out: IC50 Inhibition of TNF-α
reported_endpoint: IC50 (µM)
Give bare numbers, in µM.

Lookup: Return reported IC50; argument: CO[C@@H]1[C@@H]2C(=C3CCC(=O)c4c(O)ccc2c43)c2cccc(O)c2[C@@H]1O (relative stereo)
Found: 14

---

- System: IL-2
- protocol_details: IL-2 release from PHA and LPS stimulated whole blood (DELFIA)
- Format: cell-based
- reported_conditions: Homo sapiens, Donor 3, read-out: IC50 Inhibition of IL-2
reported_endpoint: IC50 (µM)
Numbers only, in µM.

Lookup: Kindly state the measured IC50 obtained for CO[C@@H]1[C@@H]2C(=C3CCC(=O)c4c(O)ccc2c43)c2cccc(O)c2[C@@H]1O (relative stereo) with IL-2.
Found: 0.43

---

- System: IL-2
- protocol_details: IL-2 release from PHA and LPS stimulated whole blood (DELFIA)
- Type: cell-based
- reported_conditions: Homo sapiens, Donor 2, read-out: IC50 Inhibition of IL-2
reported_endpoint: IC50
A bare number is not enough; add the unit after it.

Lookup: Return reported IC50; argument: CO[C@@H]1[C@@H]2C(=C3CCC(=O)c4c(O)ccc2c43)c2cccc(O)c2[C@@H]1O (relative stereo)
Found: 1200 nM

---

- Test system: IL-2
- protocol_details: IL-2 release from PHA and LPS stimulated whole blood (DELFIA)
- Type: cell-based
- reported_conditions: Homo sapiens, Donor 6, read-out: IC50 Inhibition of IL-2
reported_endpoint: IC50

Lookup: Kindly state the measured IC50 obtained for CO[C@@H]1[C@@H]2C(=C3CCC(=O)c4c(O)ccc2c43)c2cccc(O)c2[C@@H]1O (relative stereo) [Compound (Ia)] with IL-2.
Found: < 0.4 µM

---

- assay_system: recombinant abl kinase (Homo sapiens, UniProt P00519)
- Sequence (P00519 whole entry): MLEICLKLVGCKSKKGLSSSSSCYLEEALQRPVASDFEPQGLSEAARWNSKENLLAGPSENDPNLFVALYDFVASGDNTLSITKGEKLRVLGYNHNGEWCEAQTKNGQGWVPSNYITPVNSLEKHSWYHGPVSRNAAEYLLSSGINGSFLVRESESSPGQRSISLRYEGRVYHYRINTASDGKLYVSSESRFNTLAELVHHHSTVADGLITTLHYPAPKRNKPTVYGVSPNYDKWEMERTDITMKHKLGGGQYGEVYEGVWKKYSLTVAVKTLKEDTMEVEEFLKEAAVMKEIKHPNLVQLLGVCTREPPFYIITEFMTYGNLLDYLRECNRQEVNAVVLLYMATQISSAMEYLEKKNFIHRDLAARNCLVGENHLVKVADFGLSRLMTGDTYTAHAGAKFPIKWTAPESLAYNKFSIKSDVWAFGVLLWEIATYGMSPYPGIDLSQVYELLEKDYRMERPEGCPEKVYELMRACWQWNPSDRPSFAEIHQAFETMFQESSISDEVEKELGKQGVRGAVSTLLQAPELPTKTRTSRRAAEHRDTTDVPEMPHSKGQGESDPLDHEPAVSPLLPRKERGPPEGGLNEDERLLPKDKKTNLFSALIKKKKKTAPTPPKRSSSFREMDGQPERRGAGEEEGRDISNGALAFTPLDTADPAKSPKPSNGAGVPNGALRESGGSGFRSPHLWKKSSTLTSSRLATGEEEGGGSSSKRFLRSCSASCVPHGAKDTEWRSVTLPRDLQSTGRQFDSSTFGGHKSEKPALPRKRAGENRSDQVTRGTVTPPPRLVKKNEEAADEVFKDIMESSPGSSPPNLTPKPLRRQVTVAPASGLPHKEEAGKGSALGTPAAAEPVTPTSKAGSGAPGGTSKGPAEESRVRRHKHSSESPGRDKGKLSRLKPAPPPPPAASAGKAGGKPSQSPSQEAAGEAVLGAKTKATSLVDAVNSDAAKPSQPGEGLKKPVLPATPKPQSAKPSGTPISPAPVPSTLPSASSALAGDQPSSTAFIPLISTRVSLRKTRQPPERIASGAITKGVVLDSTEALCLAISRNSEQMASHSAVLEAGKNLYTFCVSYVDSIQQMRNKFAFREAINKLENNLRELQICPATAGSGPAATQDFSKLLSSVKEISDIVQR
- protocol_details: Inhibition of tyrosine kinase activity (abl kinase, LANCE time resolved fluorescence)
- reported_conditions: abl kinase, peptide 6-20 p34cdc substrate
reported_endpoint: pIC50
Give bare numbers, as −log10 of the molar value.

Past entries and their recorded results:
>  <compound>
CCCOC1c2c(O)cccc2C2=C3CCC(=O)c4c(O)ccc(c43)C2C1OC (centres unmarked)

>  <numeric_value>
6.88

$$$$
>  <compound>
COC1C(O)c2c(O)cccc2C23OC24CCC(=O)c2c(O)ccc(c24)C13 (centres unmarked)

>  <numeric_value>
6.15

$$$$
>  <compound>
CO[C@@H]1[C@@H]2C(=C3CCC(=O)c4c(O)ccc2c43)c2cccc(O)c2[C@@H]1O (relative stereo)

>  <numeric_value>
8.22

$$$$
>  <compound>
CCOC1c2c(O)cccc2C2=C3CCC(=O)c4c(O)ccc(c43)C2C1OC (centres unmarked)

>  <numeric_value>
6.56

$$$$
>  <compound>
COC1c2c(O)cccc2C2=C3CCC(=O)c4c(O)ccc(c43)C2C1OC (centres unmarked)

>  <numeric_value>
7.35

$$$$

Then this compound:
Lookup: Return reported pIC50; argument: CO[C@H]1[C@H](OC)c2c(O)cccc2C2=C3CCC(=O)c4c(O)ccc(c43)[C@@H]21 (relative stereo) [Compound 11a]
Found: 5.63

---

- assay_system: recombinant abl kinase (Homo sapiens, UniProt P00519)
- protocol_details: Inhibition of tyrosine kinase activity (abl kinase, LANCE time resolved fluorescence)
- reported_conditions: abl kinase, peptide 6-20 p34cdc substrate
Answer each item with its documented IC50.

>  <compound>
CCO[C@@H]1c2c(O)cccc2C2=C3CCC(=O)c4c(O)ccc(c43)[C@@H]2[C@H]1OC [Compound 10a]

>  <IC50>
> 5 µM

$$$$

Record IC50 for all entries; do not skip any.
1. COC1C(O)c2c(O)cccc2C2=C3CCC(=NO)c4c(O)ccc(c43)C21 (centres unmarked)
2. COC1C(=O)c2c(O)cccc2C2=C3CCC(=O)c4c(O)ccc(c43)C21 (centres unmarked)
3. COc1cccc2c1C(O)C(OC)C1C2=C2CCC(=O)c3c(O)ccc1c32 (centres unmarked)
4. COC1C(O)c2c(O)cccc2C2=C3CCC(O)c4c(O)ccc(c43)C21 (single isomer, unassigned) [Compound 2b]
5. COC1C(O)c2c(O)cccc2C2=C3CCC(=O)c4c(O)c(Cl)cc(c43)C21 (centres unmarked)
6. COC1C(O)c2c(O)cccc2C2=C3CCC(O)c4c(O)ccc(c43)C21 (single isomer, unassigned) [Compound 2a]

Found:
> 1 µM
> 5 µM
> 1 µM
> 1 µM
> 1 µM
> 1 µM

Lookup: Kindly state the measured IC50 obtained for COC1C(O)c2c(O)cccc2C2=C3CCC(NC4CC4)c4c(O)ccc(c43)C21 (centres unmarked) with recombinant abl kinase (Homo sapiens, UniProt P00519).
Found: > 1 µM
